Record: IC50 reported on Poly [ADP-ribose] polymerase 1 (Homo sapiens).
Sequence (P09874 whole entry): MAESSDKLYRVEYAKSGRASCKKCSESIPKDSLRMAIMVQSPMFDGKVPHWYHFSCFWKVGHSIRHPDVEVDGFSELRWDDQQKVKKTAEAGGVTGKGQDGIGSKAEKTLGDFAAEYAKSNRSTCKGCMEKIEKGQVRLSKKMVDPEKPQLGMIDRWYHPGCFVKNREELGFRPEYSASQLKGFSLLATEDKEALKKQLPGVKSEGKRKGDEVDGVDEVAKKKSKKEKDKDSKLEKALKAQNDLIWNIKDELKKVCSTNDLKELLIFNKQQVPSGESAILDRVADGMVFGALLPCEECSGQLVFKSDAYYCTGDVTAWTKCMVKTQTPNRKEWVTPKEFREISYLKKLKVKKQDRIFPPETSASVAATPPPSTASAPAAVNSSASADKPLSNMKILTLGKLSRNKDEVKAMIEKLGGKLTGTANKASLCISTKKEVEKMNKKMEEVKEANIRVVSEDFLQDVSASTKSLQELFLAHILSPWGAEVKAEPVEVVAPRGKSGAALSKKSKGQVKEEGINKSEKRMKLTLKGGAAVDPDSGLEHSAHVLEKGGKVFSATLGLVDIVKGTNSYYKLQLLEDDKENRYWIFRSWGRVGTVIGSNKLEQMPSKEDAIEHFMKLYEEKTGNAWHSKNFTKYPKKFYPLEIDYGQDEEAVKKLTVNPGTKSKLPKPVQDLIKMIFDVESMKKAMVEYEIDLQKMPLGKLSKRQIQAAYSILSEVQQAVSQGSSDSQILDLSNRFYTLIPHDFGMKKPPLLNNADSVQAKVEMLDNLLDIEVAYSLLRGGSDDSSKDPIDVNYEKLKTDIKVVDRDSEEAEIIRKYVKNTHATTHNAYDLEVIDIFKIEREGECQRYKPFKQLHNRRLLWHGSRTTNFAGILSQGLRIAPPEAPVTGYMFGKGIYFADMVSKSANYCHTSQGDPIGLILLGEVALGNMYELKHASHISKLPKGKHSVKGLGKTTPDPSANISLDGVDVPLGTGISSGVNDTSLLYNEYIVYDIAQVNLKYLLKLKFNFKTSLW

[
  {
    "compound": "NC(=O)c1cccc2cc(-c3ccccc3)nn12",
    "display-unit": "nM",
    "IC50": 55
  },
  {
    "compound": "NC(=O)c1cccc2cn(-c3ccc(CNCC(F)F)cc3)nc12",
    "display-unit": "nM",
    "IC50": 14
  },
  {
    "compound": "NC(=O)c1cccc2cn(-c3ccc(CN4CCOCC4)cc3)nc12",
    "display-unit": "nM",
    "IC50": 17
  },
  {
    "compound": "NC(=O)c1cccc2cn(-c3ccc4c(c3)CCNC4)nc12",
    "display-unit": "nM",
    "IC50": 1.4
  },
  {
    "compound": "CCNCc1ccc(-n2cc3cccc(C(N)=O)c3n2)cc1",
    "display-unit": "nM",
    "IC50": 4.3
  },
  {
    "compound": "NC(=O)c1cccc2cn(Cc3ccccc3)nc12",
    "display-unit": "nM",
    "IC50": 130
  },
  {
    "compound": "CNCc1cccc(-n2cc3cccc(C(N)=O)c3n2)c1",
    "display-unit": "nM",
    "IC50": 5.3
  },
  {
    "compound": "NC(=O)c1cccc2cn(-c3ccc(C4CCNCC4)cc3)nc12",
    "display-unit": "nM",
    "IC50": 9
  },
  {
    "compound": "CNCc1ccc(-n2cc3cccc(C(N)=O)c3n2)cc1",
    "display-unit": "nM",
    "IC50": 3.8
  },
  {
    "compound": "NC(=O)c1cccc2cn(-c3ccc4c(c3)CNCC4)nc12",
    "display-unit": "nM",
    "IC50": 2.2
  },
  {
    "compound": "NC(=O)c1cccc2cn(-c3ccc(CN4CCCCC4)cc3)nc12",
    "display-unit": "nM",
    "IC50": 1.9
  },
  {
    "compound": "CN(C)Cc1ccc(-n2cc3cccc(C(N)=O)c3n2)cc1",
    "display-unit": "nM",
    "IC50": 3.7
  },
  {
    "compound": "NC(=O)c1cccc2cn(-c3ccc(C4CCCN4)cc3)nc12 (stereo unspecified)",
    "display-unit": "nM",
    "IC50": 3.1
  },
  {
    "compound": "CN(C)CCN(C)Cc1ccc(-n2cc3cccc(C(N)=O)c3n2)cc1",
    "display-unit": "nM",
    "IC50": 5.9
  },
  {
    "compound": "NC(=O)c1cccn2nc(-c3ccccc3)nc12",
    "display-unit": "nM",
    "IC50": 270
  },
  {
    "compound": "CNC(C)c1ccc(-n2cc3cccc(C(N)=O)c3n2)cc1 (stereo unspecified)",
    "display-unit": "nM",
    "IC50": 3.7
  }
]

###

log10(EC90) values for the molecules below.
target-desc: PARP 1, 2 and 3 (Homo sapiens, UniProt P09874+Q9Y6F1+Q9UGN5)
measurement-setup: HeLa
Description: Inhibition of PARP in hydrogen peroxide-induced human HeLa cells assessed as inhibition DNA-damage-induced PARylation
value-type: log10(EC90) (log10 of the value in nM)

[
  {
    "molecule": "NC(=O)c1cccc2cn(-c3ccc([C@H]4CCCNC4)cc3)nc12",
    "log10(EC90)": 2.45
  },
  {
    "molecule": "NC(=O)c1cccc2cn(-c3ccc(C4CCCN4)cc3)nc12 (configuration not stated)",
    "log10(EC90)": 2.63
  },
  {
    "molecule": "CCNCc1ccc(-n2cc3cccc(C(N)=O)c3n2)cc1",
    "log10(EC90)": 3.32
  },
  {
    "molecule": "NC(=O)c1cccc2cn(-c3cccc(Cl)c3)nc12",
    "log10(EC90)": 3.75
  },
  {
    "molecule": "NC(=O)c1cccc2cn(-c3ccc(CN4CCCCC4)cc3)nc12",
    "log10(EC90)": 2.99
  },
  {
    "molecule": "CN(C)CCN(C)Cc1ccc(-n2cc3cccc(C(N)=O)c3n2)cc1",
    "log10(EC90)": 3.64
  },
  {
    "molecule": "CN(C)Cc1ccc(-n2cc3cccc(C(N)=O)c3n2)cc1",
    "log10(EC90)": 2.80
  },
  {
    "molecule": "NC(=O)c1cccc2cn(-c3ccc4c(c3)CCNC4)nc12",
    "log10(EC90)": 2.15
  },
  {
    "molecule": "NC(=O)c1cccc2cn(-c3ccc(CN4CCCC4)cc3)nc12",
    "log10(EC90)": 2.65
  },
  {
    "molecule": "CN1CCN(Cc2ccc(-n3cc4cccc(C(N)=O)c4n3)cc2)CC1",
    "log10(EC90)": 3.43
  },
  {
    "molecule": "CNCc1ccc(-n2cc3cccc(C(N)=O)c3n2)cc1",
    "log10(EC90)": 2.87
  },
  {
    "molecule": "NC(=O)c1cccc2cn(-c3ccc(CN4CCOCC4)cc3)nc12",
    "log10(EC90)": 3.79
  },
  {
    "molecule": "NC(=O)c1cccc2cn(-c3ccc(C4CCCNC4)cc3)nc12 (configuration not stated)",
    "log10(EC90)": 2.34
  },
  {
    "molecule": "NC(=O)c1cccc2cn(-c3ccc([C@@H]4CCCNC4)cc3)nc12",
    "log10(EC90)": 1.65
  },
  {
    "molecule": "CNC(C)c1ccc(-n2cc3cccc(C(N)=O)c3n2)cc1 (configuration not stated)",
    "log10(EC90)": 2.83
  },
  {
    "molecule": "NC(=O)c1cccc2cn(-c3ccc(CNCC(F)F)cc3)nc12",
    "log10(EC90)": 3.88
  },
  {
    "molecule": "NC(=O)c1cccc2cn(-c3ccc(Cl)cc3)nc12",
    "log10(EC90)": 3.83
  },
  {
    "molecule": "CC(C)NCc1ccc(-n2cc3cccc(C(N)=O)c3n2)cc1",
    "log10(EC90)": 3.30
  },
  {
    "molecule": "NC(=O)c1cccc2cn(-c3ccccc3)nc12",
    "log10(EC90)": 3.79
  },
  {
    "molecule": "CNC(C)(C)c1ccc(-n2cc3cccc(C(N)=O)c3n2)cc1",
    "log10(EC90)": 2.95
  },
  {
    "molecule": "NC(=O)c1cccc2cn(-c3ccc4c(c3)CNCC4)nc12",
    "log10(EC90)": 2.49
  }
]

###

method: Solubility in phosphate buffer
Type: physicochemical

[
  {
    "mol-smiles": "CN(C)Cc1ccc(-n2cc3cccc(C(N)=O)c3n2)cc1",
    "solubility": "> 3000 µg/mL"
  }
]

###

log10(microsomal CLint) values for the compounds below.
method: Intrinsic clearance in mouse liver microsomes assessed per mg of protein up to 90 mins
Assay type: ADME, Microsome
value-type: log10(microsomal CLint) (log10 of the value in µL/min/mg)

[
  {
    "compound": "NC(=O)c1cccc2cn(-c3ccc4c(c3)CCNC4)nc12",
    "measurement": 0.48
  },
  {
    "compound": "NC(=O)c1cccc2cn(-c3ccc(C4CCCNC4)cc3)nc12 (stereo unspecified)",
    "measurement": 0.00
  },
  {
    "compound": "NC(=O)c1cccc2cn(-c3ccc([C@H]4CCCNC4)cc3)nc12",
    "measurement": 0.48
  },
  {
    "compound": "CN(C)Cc1ccc(-n2cc3cccc(C(N)=O)c3n2)cc1",
    "measurement": 0.00
  },
  {
    "compound": "NC(=O)c1cccc2cn(-c3ccc4c(c3)CNCC4)nc12",
    "measurement": 0.60
  },
  {
    "compound": "CNCc1ccc(-n2cc3cccc(C(N)=O)c3n2)cc1",
    "measurement": 0.48
  },
  {
    "compound": "NC(=O)c1cccc2cn(-c3ccccc3)nc12",
    "measurement": 2.14
  },
  {
    "compound": "NC(=O)c1cccc2cn(-c3ccc(CN4CCCCC4)cc3)nc12",
    "measurement": 0.48
  },
  {
    "compound": "NC(=O)c1cccc2cn(-c3ccc(C4CCNCC4)cc3)nc12",
    "measurement": 0.70
  },
  {
    "compound": "CNC(C)c1ccc(-n2cc3cccc(C(N)=O)c3n2)cc1 (stereo unspecified)",
    "measurement": 0.00
  },
  {
    "compound": "CC(C)NCc1ccc(-n2cc3cccc(C(N)=O)c3n2)cc1",
    "measurement": 0.00
  },
  {
    "compound": "CN1CCN(Cc2ccc(-n3cc4cccc(C(N)=O)c4n3)cc2)CC1",
    "measurement": 0.30
  },
  {
    "compound": "NC(=O)c1cccc2cn(-c3ccc(C4CCCN4)cc3)nc12 (stereo unspecified)",
    "measurement": 0.60
  },
  {
    "compound": "NC(=O)c1cccc2cn(-c3ccc([C@@H]4CCCNC4)cc3)nc12 [NIRAPARIB]",
    "measurement": 0.60
  },
  {
    "compound": "CNCc1cccc(-n2cc3cccc(C(N)=O)c3n2)c1",
    "measurement": 0.70
  }
]
